biological target: RUNX1 (UniProt Q01196); test: RUNX1 binding intensity (PBM fluorescence), RUNX1 alone (arbitrary fluorescence units); higher = stronger binding; conditions: RUNX1 concentration 2 nM; ETS1 concentration 0 nM
Sequence (Q01196 whole entry): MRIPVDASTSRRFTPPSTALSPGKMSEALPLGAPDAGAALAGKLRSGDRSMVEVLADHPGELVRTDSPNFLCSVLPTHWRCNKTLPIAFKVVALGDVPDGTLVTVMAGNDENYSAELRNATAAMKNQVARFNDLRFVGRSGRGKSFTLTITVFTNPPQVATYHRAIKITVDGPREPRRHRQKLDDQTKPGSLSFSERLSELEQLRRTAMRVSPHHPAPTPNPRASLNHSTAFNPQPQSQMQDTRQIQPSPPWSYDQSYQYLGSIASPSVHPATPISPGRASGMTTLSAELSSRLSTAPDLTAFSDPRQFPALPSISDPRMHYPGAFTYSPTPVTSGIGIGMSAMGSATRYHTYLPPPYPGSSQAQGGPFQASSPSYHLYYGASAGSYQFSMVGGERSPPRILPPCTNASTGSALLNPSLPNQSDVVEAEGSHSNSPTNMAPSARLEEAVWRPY

# sequenceChain, RUNX1 binding intensity
rows = [
    ("CCTGGTCCGGAAGCGCTGTCCCCGCCTCCCGCATAG", 822),
    ("GACACGTCTTTGGAAGGATGTGGTTGCCGTGGGTTT", 786),
    ("CCAGGGCCGGAAGTGCTGGTGGTGGTTTCCATCATG", 733),
    ("ACCTGAGCAGGAAGTAGCTGAGGTCGCGGTGCAGCA", 730),
    ("AATATACGGTGAGGATGTGGGCAAAAAACAAAGAGG", 809),
    ("GACATCCAGGAAGTGGTGAGAAACCACGTGTGTGTT", 747),
    ("GTCTTTCACTCCACTTCCGCCCCCACAAAACATACA", 6600),
    ("CCCAGCCCTGCTGCCGGATGTGGTGAGGCCCAGGTG", 768),
    ("CTCGCCCCATTTCCCGTAAATATCAGCCACAGACCA", 1350),
    ("TGAGTCACAGAGACAGGATGTGGTGCAGGGGGTATT", 718),
    ("CAGCAAAAGGCAGGATGTGGTTAAAACTGTGCTCTG", 1110),
    ("CCCAGGGCAGGAAGGGCCAAACCGCTACTGCCACTG", 744),
    ("CGGGTTGGGCAGGAAGCAGCATGACCGCAGTGGGTC", 959),
    ("GCCTGCACCCTAGTTCCGGTGTGGGTGGAGGGGCCG", 4050),
    ("GGCCGGGGGCAGGAAGCTGCGGCGCTGGCTCCCCCC", 649),
]

====

Biological target: ETS1 (UniProt P14921)
Sequence: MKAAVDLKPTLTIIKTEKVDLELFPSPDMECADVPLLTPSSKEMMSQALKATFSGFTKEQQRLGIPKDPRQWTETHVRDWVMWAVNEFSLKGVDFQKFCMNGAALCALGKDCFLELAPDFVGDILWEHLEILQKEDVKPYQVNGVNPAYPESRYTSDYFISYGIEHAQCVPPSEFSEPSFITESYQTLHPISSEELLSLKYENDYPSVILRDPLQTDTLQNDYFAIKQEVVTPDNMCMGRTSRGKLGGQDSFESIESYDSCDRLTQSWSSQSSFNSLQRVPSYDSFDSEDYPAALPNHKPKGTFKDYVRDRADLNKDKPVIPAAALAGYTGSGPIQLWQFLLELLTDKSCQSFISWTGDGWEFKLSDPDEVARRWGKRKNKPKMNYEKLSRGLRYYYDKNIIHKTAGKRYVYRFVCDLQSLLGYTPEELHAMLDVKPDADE
Test: ETS1 binding intensity (PBM fluorescence) in presence of RUNX1, normalised to ETS1-only experiment (arbitrary fluorescence units); higher = stronger binding
Settings: ETS1 concentration 1 nM; RUNX1 concentration 25 nM
ETS1 binding intensity values, listed per item
quantity: ETS1 binding intensity

# sequenceChain, val
data = [
    ("GGGTCCTTCCGGGTTTTGTGTCGAATCTGCGGCGGC", 395),
    ("AACAGTCACATCCGGGGCCGAGAGGAACCGCGAACG", 2080),
    ("CTGCCGCGACAGACAGGATGTGGCTTCTGCTCTGTC", 16900),
    ("AACGGACCCGGAAGGGGCAGGTCTTGTGGGCGGGTC", 1420),
    ("TCCCCGGCAGCTTCCTCGCCCCGACCGCAGTGTTCC", 798),
    ("CAACTTCCGGGGCCGGTTGCCTGGCAACCGCAGGAG", 3940),
    ("GCCCGCCCCGGAAGTGCAAACTGTGTGGTCTGGCAG", 7090),
    ("GATGGTGTCTTTTGGGGATGTGGGTTTGGGGGATGG", 1610),
]

====

Target: ETS1 (UniProt P14921)
Sequence: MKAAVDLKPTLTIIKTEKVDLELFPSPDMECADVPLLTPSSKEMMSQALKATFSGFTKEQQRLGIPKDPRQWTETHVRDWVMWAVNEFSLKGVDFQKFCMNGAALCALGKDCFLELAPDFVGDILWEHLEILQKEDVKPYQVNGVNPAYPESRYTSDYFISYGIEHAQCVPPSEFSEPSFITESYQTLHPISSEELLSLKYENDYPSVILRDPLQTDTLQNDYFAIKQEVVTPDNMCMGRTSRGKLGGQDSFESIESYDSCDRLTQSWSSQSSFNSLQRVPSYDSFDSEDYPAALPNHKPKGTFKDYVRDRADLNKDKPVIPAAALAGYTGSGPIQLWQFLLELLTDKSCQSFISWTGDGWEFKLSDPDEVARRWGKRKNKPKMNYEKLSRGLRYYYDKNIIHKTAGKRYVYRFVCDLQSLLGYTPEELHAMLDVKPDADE
Assay: ETS1 binding intensity (PBM fluorescence) in presence of RUNX1, normalised to ETS1-only experiment (arbitrary fluorescence units); higher = stronger binding
Details: ETS1 concentration 1 nM; RUNX1 concentration 25 nM
Each record gets a class by ETS1 binding intensity: lower range: < 900; middle range: ≥ 900 and < 3000; upper range: ≥ 3000

# sequenceChain, systemUnderTest, classification
data = [
    ("GGACACAGGCTTCCGCGTTACCGACACCGCGTGGGG", "ETS1 (UniProt P14921)", "lower range"),
    ("GCACTTCCGGAGCCGGGCGTCTACAGACCGCGGCCA", "ETS1 (UniProt P14921)", "middle range"),
    ("GGGCAGCAGCAGACCGGAAACCACAGCCGACTAAGA", "ETS1 (UniProt P14921)", "upper range"),
    ("ATCAGAGCGGAAATCTCAGTCTTGTGTGGGGACCTG", "ETS1 (UniProt P14921)", "middle range"),
    ("TCGGAACGGAAGGGAGGCACGAAACCGCGAGTGGAG", "ETS1 (UniProt P14921)", "middle range"),
    ("CGAGGGAGCCGGAAAGATGGTGGTTACCAGATCTGC", "ETS1 (UniProt P14921)", "middle range"),
    ("AACAGCTTTTGTCCAGGATGTGGCTTCATAGCCTTG", "ETS1 (UniProt P14921)", "middle range"),
    ("TCTACATCCTGCAGTTCTCCATTGTGGCCATTAGGT", "ETS1 (UniProt P14921)", "lower range"),
    ("ACCTTCGCCGGATGCTGTGGCTGAAACCACAGCATT", "ETS1 (UniProt P14921)", "upper range"),
    ("CCCCTCGCCCTTCCGCATTGCGGGTTACTTCGGTTG", "ETS1 (UniProt P14921)", "lower range"),
    ("CCACGTCCACAAAGGAAACCGCGGCCTGCCCGGGGA", "ETS1 (UniProt P14921)", "middle range"),
    ("AGGCCGCTTCCTCCCACATGAAACCGCAGGCTTCGG", "ETS1 (UniProt P14921)", "middle range"),
    ("GGGAGGTGTCCAGGAAGTGGTTGGAGAGTCTGGTCT", "ETS1 (UniProt P14921)", "upper range"),
    ("CTGACAGCTTCCGCACAAAGCGCGGTCTATTTCTCC", "ETS1 (UniProt P14921)", "lower range"),
    ("GGCCCGGCCGGAAGAAGCCACCTCCCCCGCACGCGT", "ETS1 (UniProt P14921)", "middle range"),
    ("ATCACTTGTTTCCGCCAGCAAACCACAGGTCCCCAG", "ETS1 (UniProt P14921)", "lower range"),
    ("GAAATTTCCGCTTTCTTTCTGCAGCAGGAACCGCGG", "ETS1 (UniProt P14921)", "middle range"),
    ("ACAGGAAATGACATCAGAATCTCCAAACCACAACCA", "ETS1 (UniProt P14921)", "upper range"),
    ("GATCCCCCTCCTCCATCCTGTGGCTTCGGGTTGCCG", "ETS1 (UniProt P14921)", "lower range"),
    ("GCAATGCCGCTACCGGAAGTGCGGGTCGCGCTCCCG", "ETS1 (UniProt P14921)", "upper range"),
    ("GAGGCGACCCACATCCGCTGTGCGGGGGCAACTGCA", "ETS1 (UniProt P14921)", "middle range"),
    ("CATCCAGGACGGAAACAGCATCCCCACCGCGGGAGC", "ETS1 (UniProt P14921)", "lower range"),
    ("CCATTCACGGGCTTCCGCGGTGTCCCCACCCCCTAA", "ETS1 (UniProt P14921)", "lower range"),
    ("GGCAGCCGGCTTCCGGCTGTGGGTGGTGCGGGGGAC", "ETS1 (UniProt P14921)", "middle range"),
    ("GCCACACAGGCAGGAAAGCCACAGCCCACGTCTCCG", "ETS1 (UniProt P14921)", "lower range"),
    ("GGTCAGGTGGGCGTTTCCTGTGGGCGTCTCCAACTC", "ETS1 (UniProt P14921)", "middle range"),
    ("CTCAGCTCCGCGGAAGTTGCGGTAAGTGGAGCTTTG", "ETS1 (UniProt P14921)", "upper range"),
    ("AGCTGTTTGGTCACAGGATGTGGTTATTAGAATAGG", "ETS1 (UniProt P14921)", "upper range"),
    ("AGACAGGAGTTCAGGAAGCTGCGGTCTAGATTATGT", "ETS1 (UniProt P14921)", "upper range"),
    ("AGCTGAAGGGCAGGATGTGGTTTCAGCATTCGGTGA", "ETS1 (UniProt P14921)", "upper range"),
    ("ACAACTTCCTGTGGGATTTTTGGTGTCTGCGGCTCA", "ETS1 (UniProt P14921)", "lower range"),
    ("AGCCTGGCCTCGGCAGGATGTGGGTGTAGGTCATGC", "ETS1 (UniProt P14921)", "upper range"),
    ("CTCCGCCAGCCACCGGAACTGCGGCCCAGCAAAAAG", "ETS1 (UniProt P14921)", "middle range"),
    ("TGATAAAACACAGGATGTGGTAAGGGAGCTGGCCAA", "ETS1 (UniProt P14921)", "upper range"),
    ("ACCTGTAGGCGGAAGTCTGTGGCTTTATTTACACAG", "ETS1 (UniProt P14921)", "upper range"),
    ("GCAGAAGAGGAAATGGTTTGCCTGTGCGGTGGGGGA", "ETS1 (UniProt P14921)", "upper range"),
    ("ACCACCCACTTCCCGCGCAGTTCCAAACCGCGACCA", "ETS1 (UniProt P14921)", "lower range"),
    ("CTTCGCCGCTTCCAGGAAGGGCCACAACGGCCGTCG", "ETS1 (UniProt P14921)", "lower range"),
    ("ACAAAGAAACCTACATCCTAAGCCACAGAATACAGC", "ETS1 (UniProt P14921)", "lower range"),
    ("TACCCCGCCGGAAGCCCCCTGCTCTGTGGGAACCGG", "ETS1 (UniProt P14921)", "upper range"),
    ("GGCGGCCTCAACTTCCGCGGTGGGACTCCGGAGCAG", "ETS1 (UniProt P14921)", "lower range"),
    ("CCATTCCCGGGCTTCCGCGGTGTCCCCACCCCCTAA", "ETS1 (UniProt P14921)", "lower range"),
    ("GAGGTGCCGGAAGCCAGTAGGTGGTTTTGGGTGCTA", "ETS1 (UniProt P14921)", "middle range"),
    ("AAATACCAGCCCACTTCCTGTGGCTTTGATCTGCAG", "ETS1 (UniProt P14921)", "upper range"),
    ("GGGGCAGGAAGTGGAGGTTTGAAGTGGTTTAGAGTA", "ETS1 (UniProt P14921)", "middle range"),
    ("CATCTACTGAGGAAGTGTAAGCCACAATAAGAAGCC", "ETS1 (UniProt P14921)", "lower range"),
]

Cited source for all entries: the supplement of paper PMC10681739
